Biological target: Adenosine receptor A1 (Rattus norvegicus, UniProt P25099)
Sequence (P25099 whole entry): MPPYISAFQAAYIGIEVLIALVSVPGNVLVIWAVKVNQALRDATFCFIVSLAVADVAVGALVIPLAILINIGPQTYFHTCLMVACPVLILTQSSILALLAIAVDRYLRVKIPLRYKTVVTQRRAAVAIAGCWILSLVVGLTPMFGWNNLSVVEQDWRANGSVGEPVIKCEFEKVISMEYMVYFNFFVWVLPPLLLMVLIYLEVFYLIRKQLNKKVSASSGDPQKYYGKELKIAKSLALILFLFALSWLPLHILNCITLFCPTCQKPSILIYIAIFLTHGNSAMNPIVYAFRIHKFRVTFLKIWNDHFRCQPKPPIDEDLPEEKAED
quantity: IC50 (µM)

{"smilesString": "CCCCC/C=C\\C/C=C\\CCCCCCCC(=O)O", "targetEntity": "Adenosine receptor A1 (Rattus norvegicus, UniProt P25099)", "quantity": "IC50", "measurement": 65}
